assay-details: Cell culture media unbound percentage and stability by rapid equilibrium dialysis (Example C)
Type: in vitro ADME
condition-details: bovine, cell assay medium (RPMI-1640 with 10% fetal bovine serum), pH 7.4, rapid equilibrium dialysis, 4 hours at 37° C., read-out: Cell Culture Media Binding (% unbound)
parameter: fraction unbound at 4 h, 1 µM

Please review the following examples before continuing.
1. CN(c1ccc([C@H]2CCC[C@@H](C(=O)Nc3ccc(C(F)(F)F)cc3F)[C@@H]2C(=O)O)cc1)S(=O)(=O)c1cccc([C@@H]2CCCNC2)c1 [Example 262] ... 0.241
2. Cc1nc2cc(S(=O)(=O)N(C)c3ccc([C@H]4CCC[C@@H](C(=O)Nc5ccc(C(F)(F)F)cc5F)[C@@H]4C(=O)O)cc3)cc(CCN(C)C)c2n1C [Example 290] ... 0.411
3. Cc1nc2cc(S(=O)(=O)N(C)c3ccc([C@H]4CCC[C@@H](C(=O)Nc5ccc(C(F)(F)F)nc5)[C@@H]4C(=O)O)cc3)ccc2n1C [Example 172] ... 0.176
4. CCO[C@@H]1C[C@H](c2ccc(N(C)S(=O)(=O)c3ccc4c(c3)ncn4C)cc2)[C@@H](C(=O)O)[C@H](C(=O)Nc2ccc(C(F)(F)F)cc2F)C1 [Example 140] ... 0.101

[P] CN(c1ccc([C@H]2CCC[C@@H](C(=O)Nc3ccc(C(F)(F)F)cc3F)[C@@H]2C(=O)O)cc1)S(=O)(=O)c1ccc2c(c1)ncn2C (single isomer, unassigned) [Example 88]
[Q] Cc1nc2cc(S(=O)(=O)N(C)c3ccc([C@H]4CCC[C@@H](C(=O)Nc5ccc(C(C)(C)O)cc5F)[C@@H]4C(=O)O)cc3)ccc2n1C [Example 181]
Of the two listed items, P and Q , which carries the larger fraction unbound at 4 h, 1 µM figure? Mark your selection by writing its label. Q
